The values you see were collected from the supplement of paper PMC10567573.

B1: EPB41L3 (parent)
chain: SMQCKVILLDGSEYTCDVEKRSRG

Variants of: B1
Protocol text: protein stability index of a GFP-peptide fusion (GPS, HEK-293T) (PSI 1-6); higher = more stable;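 further: lentivirally expressed fusions sorted by FACS into six bins by GFP to DsRed ratio, PSI derived from sequencing read proportions per bin multiplied by bin number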
Test settings: c terminus: a fixed tail appended
protein stability index: recorded values
// no unit, no text: just the number

sequence_variant=Q3S measured_metric="protein stability index" assay_value=2.98
sequence_variant=L9I measured_metric="protein stability index" assay_value=2.97
sequence_variant=V18G measured_metric="protein stability index" assay_value=2.96

Entry K20M — recorded protein stability index = 2.04

Entry S12D — recorded protein stability index = 3.08

Entry G11K — recorded protein stability index = 2.94
